Measured values drawn from patent EP0308983A2 for this set.

# TEST_METHOD_NOTES: Paramagnetic relaxation properties in human plasma at 37°C
# Assay type: physicochemical
# TEST_PARAMETERS: 37°C
OBSERVABLE: R₁ (mM⁻¹ s⁻¹)
Please state the figure in mM⁻¹ s⁻¹; there is no need to write the unit.

Worked examples follow.
N[C@@H](CS)C(=O)O.N[C@@H](CS)C(=O)O.O.O.[Cl-].[Cl-].[Mn+2]
44.0
NC(=O)C[C@H]([NH3+])C(=O)[O-].NC(=O)C[C@H]([NH3+])C(=O)[O-].O.O.[Cl-].[Cl-].[Mn+2]
45.5
CC(C)[C@H](N)C(=O)O.CC(C)[C@H](N)C(=O)O.O.O.[Cl-].[Cl-].[Mn+2]
43.5
NCC(=O)O.NCC(=O)O.O.O.[Cl-].[Cl-].[Mn+2]
46.9
CC(C)C[C@H](N)C(=O)O.CC(C)C[C@H](N)C(=O)O.O.O.[Cl-].[Cl-].[Mn+2]
45.7
CC[C@H](C)[C@H](N)C(=O)O.CC[C@H](C)[C@H](N)C(=O)O.O.O.[Cl-].[Cl-].[Mn+2]
47.3
N[C@@H](Cc1ccccc1)C(=O)O.N[C@@H](Cc1ccccc1)C(=O)O.O.O.[Cl-].[Cl-].[Mn+2]
46.3

Then there is this compound:
# get_value(readout='R₁', item= N[C@@H](CO)C(=O)O.N[C@@H](CO)C(=O)O.O.O.[Cl-].[Cl-].[Mn+2] ) 45.2
